Source: ChEMBL document CHEMBL1151433

Tested on: Streptococcus pneumoniae
method_notes: Antibacterial activity against penicillin-susceptible Streptococcus pneumoniae ATCC 49619 isolated from respiratory tract infected patients assessed as resistant isolates after 20 to 24 hrs by broth microdilution method
Type: functional
What Activity was measured for each of the following?
Value expressed in %; do not type the unit.

Query :: Recorded Activity for C=CC1=C(C(=O)O)N2C(=O)[C@@H](NC(=O)/C(=N\O)c3csc(N)n3)[C@H]2SC1 [CEFDINIR] , please?
Result :: 0

Query :: Recorded Activity for C[C@H]1COc2c(N3CCN(C)CC3)c(F)cc3c(=O)c(C(=O)O)cn1c23.C[C@H]1COc2c(N3CCN(C)CC3)c(F)cc3c(=O)c(C(=O)O)cn1c23.O [LEVOFLOXACIN] , please?
Result :: 0.2

Query :: Recorded Activity for CO/N=C(\C(=O)N[C@@H]1C(=O)N2C(C(=O)O)=C(COC(N)=O)CS[C@H]12)c1ccco1 [CEFUROXIME] , please?
Result :: 0

Query :: Recorded Activity for CC[C@H]1OC(=O)[C@H](C)C(=O)[C@H](C)[C@@H](O[C@@H]2O[C@H](C)C[C@H](N(C)C)[C@H]2O)[C@](C)(OC)C[C@@H](C)C(=O)[C@H](C)[C@H]2N(CCCCn3cnc(-c4cccnc4)c3)C(=O)O[C@]12C [TELITHROMYCIN] , please?
Result :: 0.1

Query :: Recorded Activity for CC[C@H]1OC(=O)[C@H](C)[C@@H](O[C@H]2C[C@@](C)(OC)[C@@H](O)[C@H](C)O2)[C@H](C)[C@@H](O[C@@H]2O[C@H](C)C[C@H](N(C)C)[C@H]2O)[C@](C)(O)C[C@@H](C)CN(C)[C@H](C)[C@@H](O)[C@]1(C)O [AZITHROMYCIN] , please?
Result :: 11.3

Query :: Recorded Activity for C[C@@H](O)[C@H]1C(=O)N2C(C(=O)O)=C(S[C@@H]3CN[C@H](C(=O)N(C)C)C3)[C@H](C)[C@H]12 [MEROPENEM] , please?
Result :: 0

###

Test system: Moraxella catarrhalis
method_notes: Antibacterial activity against Moraxella catarrhalis isolated from respiratory tract infected patients after 20 to 24 hrs by broth microdilution method
Format: functional
quantity_measured: MIC50

Query :: // lookup MIC50 | system=Moraxella catarrhalis | key= C[C@@H](O)[C@H]1C(=O)N2C(C(=O)O)=C(S[C@@H]3CN[C@H](C(=O)N(C)C)C3)[C@H](C)[C@H]12 [MEROPENEM]
Result :: ≤ 0.004 µg/mL

Query :: // lookup MIC50 | system=Moraxella catarrhalis | key= CC[C@H]1OC(=O)[C@H](C)[C@@H](O[C@H]2C[C@@](C)(OC)[C@@H](O)[C@H](C)O2)[C@H](C)[C@@H](O[C@@H]2O[C@H](C)C[C@H](N(C)C)[C@H]2O)[C@](C)(O)C[C@@H](C)CN(C)[C@H](C)[C@@H](O)[C@]1(C)O [AZITHROMYCIN]
Result :: ≤ 0.12 µg/mL

Query :: // lookup MIC50 | system=Moraxella catarrhalis | key= C[C@H]1COc2c(N3CCN(C)CC3)c(F)cc3c(=O)c(C(=O)O)cn1c23.C[C@H]1COc2c(N3CCN(C)CC3)c(F)cc3c(=O)c(C(=O)O)cn1c23.O [LEVOFLOXACIN]
Result :: ≤ 0.06 µg/mL

Query :: // lookup MIC50 | system=Moraxella catarrhalis | key= C=CC1=C(C(=O)O)N2C(=O)[C@@H](NC(=O)/C(=N\O)c3csc(N)n3)[C@H]2SC1 [CEFDINIR]
Result :: 0.25 µg/mL
